- Applied Conditions: buffer; pH 7.4; 200.0 µM
Each entry below carries its recorded solubility kinetic.

Compound	Recorded Measurement
COc1cc(=O)[nH]c(SC(C)C(=O)Nc2cc(C)on2)n1 (stereo not given)	> 46.5 µg/mL
CC1CC(C)CN(C(=O)COC(=O)/C=C/c2ccco2)C1 (stereo not given)	> 43.7 µg/mL
CCCCC(=O)Nc1ccc(NC(=O)c2cnccn2)cn1	> 44.9 µg/mL
CCCCC(C(=O)O)C(C)CC(=O)Nc1nccs1 (stereo not given)	> 42.7 µg/mL
CCOC(=O)CC1C(=O)NCCN1S(=O)(=O)c1ccc(C)cc1 (stereo not given)	> 51.1 µg/mL

# solubility kinetic lookup, item CCc1c(C)nc(SCC(=O)N2CCCCC2)[nH]c1=O
> 44.3 µg/mL

For the compound shown here, NC(=O)c1coc(-c2ccccc2)n1 , give the reported solubility kinetic.
> 28.2 µg/mL

Entry under review: O=S(=O)(c1cccc(-c2nnco2)c1)N1CCOCC1 . Reported solubility kinetic?
> 44.3 µg/mL

Look up solubility kinetic for this compound: COc1ccc(OCC(=O)OCC(=O)NC2CC2)cc1
> 41.9 µg/mL

Given the entry CCC(Oc1ccccc1)C(=O)Nc1ncc([N+](=O)[O-])s1 (stereo not given) , report its measured solubility kinetic.
> 46.1 µg/mL

Look up solubility kinetic: CSc1sc(C(=O)N(C)C)c2c1S(=O)(=O)N(C)c1ccccc1-2
> 55.3 µg/mL

Item COc1cc(/C=C/C(=O)N(C)CC(=O)Nc2ccccc2SC)cc(OC)c1OC has what recorded solubility kinetic?
> 64.6 µg/mL

Requested read-out: solubility kinetic. Entry: C=CCNC(=S)N1CCC(C(=O)c2ccc(F)cc2)CC1
> 46 µg/mL

Would you mind telling me what solubility kinetic value was observed for O=C(O)c1ccc(S(=O)(=O)NC2CC2)cc1 ?
> 36.2 µg/mL
